Record form. Attribute: TGI. Fill in for each entry.
System: K-562 leukemia
method_summary: NCI tumour cell line growth inhibition, 48 h

1. N#C/C(=C\c1ccc([N+](=O)[O-])o1)c1n[nH]c(Cc2ccccc2)n1 : > 22.3 µM
2. O=[N+]([O-])c1ccc(C2SCc3nc4ccccc4n32)cc1 (configuration not stated) : > 100 µM
3. COC(=O)c1ccc(C(=O)OC)c2nc3cc(Cl)ccc3nc12 : > 100 µM

For every item below, please supply its TGI.
1. O=[N+]([O-])c1cccc(-c2cn3c(n2)Cc2ccccc2C3)c1
2. NCCCC(N=Cc1nc(-c2ccccc2)oc1O)C(=O)O (configuration not stated)

stdout:
["> 100 µM", "> 100 µM"]

Batch lookup, TGI per entry.
1. CC(=Nc1cccc(Cl)c1)c1ccncc1
2. CN(CCCN1C(=O)c2cccc3cc([N+](=O)[O-])cc(c23)C1=O)CCN(C)CCCN1C(=O)c2cccc3cc([N+](=O)[O-])cc(c23)C1=O

stdout:
1. > 100 µM
2. > 39.3 µM

====

Test system: SN12C renal
method_summary: NCI tumour cell line growth inhibition, 48 h
Classify as follows. Reported TGI greater than or equal to 20 µM: yes. Reported TGI below: no.

Check out these entries, answers already filled in.
1. COc1ccc2cc(CN3CCC(C4CCN(Cc5ccc6cc(OC)ccc6c5)CC4)CC3)ccc2c1 : yes
2. CCN(CC)/[N+]([O-])=N/OCOC : yes
3. CCCCCCCCCC(=O)NC(CCC(=O)N(CCNC(=O)c1nc(-c2ccccc2)oc1-c1ccccc1)Cc1ccccc1)C(=O)O (centres undefined) : yes
4. CCCCCCCCC(C)CCCCCCCCC(=O)OCC(COP(=O)([O-])OCC[N+](C)(C)C)OC(=O)CCCCCCCCC(C)CCCCCCCC (centres undefined) : yes
5. O=C(OCc1ccccc1)c1ccc(NCc2cc(O)ccc2O)cc1 : no
6. CC(C)c1[nH]nc2c(NCc3ccc(-c4ccccn4)cc3)nc(SCCN(C)C)nc12 : no
7. COC(=O)c1ccc(C(=O)OC)c2nc3cc(Cl)ccc3nc12 : yes
8. CSc1ccc(NC(=O)Nc2cc(C)ccn2)cc1 : yes

stdin: Is reported TGI greater than or equal to 20 µM here: C=C1C(=O)O[C@@H]2CC(CO)=C([C@@H](C)CCCO)[C@@H](OC(=O)/C(C)=C\C)[C@H]12
stdout: yes

====

System: HL-60(TB) leukemia
method_summary: NCI tumour cell line growth inhibition, 48 h
For each of the molecules below, state its TGI.

// worked examples, TGI included
1. O=C1NC2(CCCCC2)C2CCCCC=C12 (stereo unspecified) : > 100 µM
2. CN(C)N=Nc1cccc(C(N)=O)c1 : > 100 µM
3. Cc1ccnc2c(NC(C)CCCN)cc(O)c(O)c12 (stereo unspecified) : 5.33 µM
4. O=C(Cn1c2c(c3ccccc31)CCCC2)N1CCCCC1 : > 100 µM
5. CCOC(=O)/C(C#N)=C\Sc1ccccc1 : 45.6 µM

stdin: Quick one: TGI of Cc1cc(N(CCC#N)CCC#N)ccc1/C=C(\NC(=O)/C=C/c1ccccc1)C(=O)Nc1ccc(Cl)cc1 ?
stdout: > 100 µM

====

Would you kindly list TGI for each of these molecules?
System: COLO 205 colon
method_summary: NCI tumour cell line growth inhibition, 48 h
Numbers only, in µM.

Consider the following items and state reported TGI for each.
1. CC(C)(C)C1=CC(=C2C=Cc3cc(O)ccc3O2)C=C(C(C)(C)C)C1=O
2. c1ccc(C2=NN=C3C(c4ccccc4)=Nc4ccccc4N3C2)cc1
3. C[C@]12Cc3conc3C(O)=C1CC[C@@H]1C2CC[C@@]2(C)C1CC[C@]2(C)O (some centres undefined)
4. Cc1ccc(Nc2nc(=O)c3c([nH]c4ccccc43)s2)cc1
5. O=C(Nc1ccc([N+](=O)[O-])cc1[N+](=O)[O-])C(=O)C(C(=O)c1ccc(Cl)c(Cl)c1)C1OC(=O)c2ccccc21 (centres undefined)

stdout:
[3.25, 52.8, 52.1, 24.7, 48.4]

====

Tested on: SNB-75 CNS
method_summary: NCI tumour cell line growth inhibition, 48 h
measured_endpoint: TGI

Below: 5 compounds and their reported TGI.
1. CC1=NN(C(=O)CC(=O)NC(=O)/C=C\c2ccccc2)C(=O)C1N=Nc1ccc([N+](=O)[O-])cc1 (stereo unspecified) : > 100 µM
2. O=C(NNc1ccccc1)c1ccc(Cl)c(Cl)c1 : > 67.8 µM
3. CCOC(=O)CC(=O)Nc1cccc2sc3ncccc3c(=O)c12 : > 100 µM
4. NCCCC(N=Cc1nc(-c2ccccc2)oc1O)C(=O)O (stereo unspecified) : > 100 µM
5. Cc1cc2c(nn1)CCc1c-2no[n+]1[O-] : > 100 µM

stdin: Please give the measured TGI for this compound: CCCCCCc1cc2cc(-c3cn4c(n3)sc3ccccc34)c(=O)oc2cc1O
stdout: > 100 µM

====

Tested on: NCI-H460 lung
method_summary: NCI tumour cell line growth inhibition, 48 h
measured_endpoint: TGI (µM)
Answers are plain numbers, in µM.

Solved cases below.
1) COc1c(B(O)O)cccc1-c1nc2ccc3[nH]ncc3c2c2c1CCCC2 : 11.2
2) CC(=O)O[C@@H]1C2=C(C)C3(CC3)[C@@](C)(O)C(=O)C2=C[C@@]1(C)CO : 1.08
3) CN(C)CCNC(=O)c1cccc2c1Oc1cccc([N+](=O)[O-])c1O2 : 35.4
4) Cc1cccc(Nc2nc3ccccc3nc2NS(=O)(=O)c2ccccc2)c1 : 51.4
5) COc1ccc2c(CCCc3ccc(Cl)cc3Cl)c3[n+](cc2c1OC)CCc1cc2c(cc1-3)OCO2 : 1.32

// below: TGI requested for another compound
stdin: Name the recorded TGI for COc1ccc(-c2c(-c3ccccc3)c(C)nc3[nH]c(=S)[nH]c(=S)c23)cc1OC .
stdout: 98.3

====

Test system: PC-3 prostate
method_summary: NCI tumour cell line growth inhibition, 48 h
For each entry below, report its TGI value.

1. CC1(C)OC[C@H](COCOP2(=O)Oc3ccc4ccccc4c3-c3c(ccc4ccccc34)O2)O1 : 27.6 µM
2. COc1ccc2c(C)cc(N/N=C/c3ccc(C)s3)nc2c1 : 37.1 µM
3. Cc1nc2sc(C(=O)Nc3ccccc3)c(N)c2cc1C(O)c1ccccc1 (stereo unspecified) : > 71 µM
4. C=CCC(N[C@H](CO)c1ccccc1)c1ccccn1 (stereo partly specified) : > 100 µM
5. Cc1cc2c(nn1)CCc1c-2no[n+]1[O-] : > 100 µM

stdin: If you can, please state the reported TGI value of CC1(C)N=C(c2ccccc2)SC12S[C@@H]1CCCC[C@H]1S2 .
stdout: > 100 µM

====

Tested on: SF-295 CNS
method_summary: NCI tumour cell line growth inhibition, 48 h
Kindly return YES if reported TGI is no lower than 5 µM; return NO if it is lower.

These solved cases illustrate the format of a correct answer.
1) COc1c(B(O)O)cccc1-c1nc2ccc3[nH]ncc3c2c2c1CCCC2 : YES
2) CC(C)(C)C1=CC(=C2C=Cc3cc(O)ccc3O2)C=C(C(C)(C)C)C1=O : NO
3) Cc1ccc(C(C)C)c(OCC(=O)N/N=C/c2c[nH]c3ccc(Br)cc23)c1 : YES
4) NNC(=O)c1cc([N+](=O)[O-])ccc1NC(=O)C12CC3CC(CC(C3)C1)C2 : YES
5) C[C@@H](CS[As](C)C)C(=O)N1CCC[C@H]1C(=O)O : YES
6) c1cc(C2CCCCC2)ccc1-c1cnc2nonc2n1 : NO
7) CC(=O)N1C(CCc2ccccc2)CC(C)(C=O)C1Cc1ccc(O[Si](C(C)C)(C(C)C)C(C)C)cc1 (stereo not given) : YES
8) COC1(OC)N=C(N)C2(C#N)C(C)=C3NCN(C)N=C3C12C#N (stereo not given) : YES
9) Cc1ccnc2c(NC(C)CCCN)cc(O)c(O)c12 (stereo not given) : YES

Read the next record carefully.
stdin: Answer whether TGI of CCCCCCc1cc2cc(-c3cn4c(n3)sc3ccccc34)c(=O)oc2cc1O is greater than or equal to 5 µM.
stdout: YES

====

System: PC-3 prostate
method_summary: NCI tumour cell line growth inhibition, 48 h; in the data active = GI50 below about 0.43 µM; inactive = the rest
Choose one outcome from this list and give only that: yes (1) (active), no (0) (inactive)

1) COC(=O)c1ccc(NC(=O)c2ccc(NC3=C(Cl)C(=O)N(Cc4ccccc4)C3=O)cc2)cc1 : no (0)

stdin: What did the test return for COCCNCc1ccc(-c2cc3nccc(Oc4ccc(NC(=O)C5(C(=O)Nc6ccc(F)cc6)CC5)cc4F)c3s2)nc1 ?
stdout: no (0)

stdin: And then O=c1cc(-c2ccccc2)oc2cc(OCCCCCN3CCOCC3)cc(O)c12 , what is it?
stdout: no (0)

stdin: Likewise for O=C(N/N=C/c1cc(Cl)ccc1O)c1ccccc1Nc1ccnc(C(F)(F)F)c1 ?
stdout: no (0)

stdin: Consider next the compound CCn1cc(C(=O)N/N=C/c2cccs2)c(=O)c2cc(F)c(N3CCNC(C)C3)c(F)c21 (stereo not drawn) in the same way.
stdout: no (0)

stdin: Same question, O=C(NCc1ccco1)C1CCN(S(=O)(=O)c2ccc(Cl)cc2)CC1 this time
stdout: no (0)

stdin: Continue with Cc1ccc(N=Nc2c(O)ccc3n[nH]nc23)cc1
stdout: no (0)

stdin: Here is the next compound: OC(CN1CCCC2CCCCC21)c1cc2ccccc2c2ccccc12 (stereo not drawn)
stdout: no (0)

stdin: Next compound: O=C1C(Cl)=C(Nc2cc(Cl)ccc2O)C(=O)N1Cc1ccccc1
stdout: no (0)

stdin: Next entry: CC(C)c1[nH]nc2c(NCc3ccc(-c4ccccn4)cc3)nc(SCCN)nc12
stdout: yes (1)

stdin: Likewise for CCN(CC)S(=O)(=O)c1cccc(-c2ccc3c(NC(=O)C4CC4)n[nH]c3c2)c1 ?
stdout: no (0)

stdin: Another compound: C=CCC(N[C@H](CO)c1ccccc1)c1ccccn1 (stereo partly drawn)
stdout: no (0)

stdin: Next record, please: COc1ccc2c(CCCc3ccc(Cl)cc3Cl)c3[n+](cc2c1OC)CCc1cc2c(cc1-3)OCO2
stdout: yes (1)
